# credit: patent EP4656642A1

test system: T-47D cells; assay: Inhibition of cell proliferation in T-47D cells (CCK-8, 6 days); format: cell-based; conditions: 6 days of treatment, Table 3
experimental.readout: pIC50
API: returns pIC50 as number; meaning -log10 of concentration in mol/L.

compound	subject.of.test	reading
O=C1CCC(N2C(=O)c3cc4c(cc3C2=O)C2(CCN(CC3CCC5(CC3)CCN(c3ccc([C@@H]6c7ccc(O)cc7CC[C@@H]6c6ccccc6)cc3)CC5)CC2)CO4)C(=O)N1 (some centres unmarked)	T-47D cells	7.68
O=C1CCC(N2Cc3c(ccc4c3OCC43CCN(CC4CCN(CC5CCN(c6ccc([C@@H]7c8ccc(O)cc8CC[C@@H]7c7ccccc7)cc6)CC5)CC4)CC3)C2=O)C(=O)N1 (some centres unmarked)	T-47D cells	7.70
O=C1CCC(N2Cc3c(ccc4c3OCC43CCN(C(=O)C4CC5(CCN(c6ccc([C@@H]7c8ccc(O)cc8CC[C@@H]7c7ccccc7)cc6)CC5)C4)CC3)C2=O)C(=O)N1 (some centres unmarked)	T-47D cells	8.79
O=C1CCC(N2Cc3c(ccc4c3OCC43CCN(C(=O)CN4CC[C@]5(CCN(c6ccc([C@@H]7c8ccc(O)cc8CC[C@@H]7c7ccccc7)cc6)C5)C4)CC3)C2=O)C(=O)N1 (some centres unmarked)	T-47D cells	8.99
O=C1CCC(N2Cc3cc4c(cc3C2=O)OC2(CC4)CN(C3CCC4(CC3)CN(c3ccc([C@@H]5c6ccc(O)cc6CC[C@@H]5c5ccccc5)cc3)C4)C2)C(=O)N1 (some centres unmarked)	T-47D cells	8.15
CC1CN(C2CC3(CCN(c4ccc([C@@H]5c6ccc(O)cc6CC[C@@H]5c5ccccc5)cc4)CC3)C2)CCC1N1CCC2(CC1)COc1c2ccc2c1CN(C1CCC(=O)NC1=O)C2=O (some centres unmarked)	T-47D cells	8.59

Supply pIC50 value. Item: O=C1CCC(N2Cc3c(ccc4c3OCC43CCN(C4CCN(C(=O)c5ccc([C@@H]6c7ccc(O)cc7CC[C@@H]6c6ccccc6)cc5)CC4)CC3)C2=O)C(=O)N1 (some centres unmarked) 6.23

Give the value of pIC50 reported for the following: O=C1CCC(N2Cc3cc4c(cc3C2=O)CCC2(CN(CC3CCC5(CC3)CCN(c3ccc([C@@H]6c7ccc(O)cc7CC[C@@H]6c6ccccc6)cc3)CC5)C2)O4)C(=O)N1 (some centres unmarked) 7.82

# return recorded pIC50 for input O=C1CCC(N2Cc3cc4c(cc3C2=O)CCC2(CN(C(=O)[C@H]3CC[C@H](CN5CCN(c6ccc([C@@H]7c8ccc(O)cc8CC[C@@H]7c7ccccc7)cc6)CC5)CC3)C2)O4)C(=O)N1 (some centres unmarked) 8.76

Retrieve pIC50 measured for O=C1CCC(N2Cc3cc4c(cc3C2=O)OCC2(CCN(CC3CCC5(CC3)CCN(c3ccc([C@@H]6c7ccc(O)cc7CC[C@@H]6c6ccccc6)cc3)CC5)CC2)O4)C(=O)N1 (some centres unmarked) and print it. 7.39

Fill in reported pIC50 for this entry: O=C1CCC(N2Cc3ccc4c(c3C2=O)OCC42CCN(C3CCN(C(=O)C4CCN(c5ccc([C@@H]6c7ccc(O)cc7CC[C@@H]6c6ccccc6)cc5)CC4)CC3)CC2)C(=O)N1 (some centres unmarked) 8.56

Output measured pIC50 for this item: O=C1CCC(N2Cc3c(ccc4c3OCC43CCN(C(=O)C(=O)N4CCC5(CCN(c6ccc([C@@H]7c8ccc(O)cc8CC[C@@H]7c7ccccc7)cc6)CC5)C4)CC3)C2=O)C(=O)N1 (some centres unmarked) 8.75

Supply pIC50 value. Item: O=C1CCC(N2Cc3c(ccc4c3OCC43CCN(C4CCC5(CC4)CCN(c4ccc(C6=C(c7ccc(Cl)cc7Cl)CCCc7cc(C(=O)O)ccc76)cc4)CC5)CC3)C2=O)C(=O)N1 (centres unmarked) 7.98

Report pIC50, nothing else, for this compound: O=C1CCC(N2Cc3cc4c(cc3C2=O)CCC2(CN(CC3CCC5(CC3)CN(c3ccc([C@@H]6c7ccc(O)cc7CC[C@@H]6c6ccccc6)cc3)C5)C2)O4)C(=O)N1 (some centres unmarked) 8.22
